src = patent US11014908B2

# Test: Single dose study in sickle Townes mice: exposure in whole blood
# Assay type: in vivo
# Condition: male, Townes (sickle cell disease model), mouse, single dose 40 mg/kg oral gavage, SCD mice, n=3
# Experimental: In Vivo Studies Mouse Model The effect of the compounds of the invention was evaluated in-male sickle Townes mice in a single dose study. Compounds of the invention were administered in amounts set out in Tables 7, 8 and 9 that follow by oral gavage. Control mice received vehicle. Blood (50 μL) was drawn at 0.5 h, 1 h, 4 h, 7 h, 10 h, and 24 h. To measure exposure in whole blood, 20 μL sample was used. Blood drawn at 0.5 h was also evaluated for cell sickling.
Observed property: concentration at 0.5 h (µM)

molecule="C[C@H](Oc1cc2cc(F)ccc2nc1N)c1nc(O)ccc1-n1cccn1 [Example 58]" result_value=285

---

# Test: Single dose study in sickle Townes mice: exposure in whole blood
# Type: in vivo
# Condition: male, Townes (sickle cell disease model), mouse, single dose 50 mg/kg oral gavage, SCD mice, n=3
Observed property: concentration at 0.5 h

structure_smiles=C[C@H](Oc1cc2cc(C(N)=O)ccc2nc1N)c1ncc(F)cc1-n1cccn1 result_value="208 µM"

---

# Test system: HbS (Homo sapiens, UniProt P68871+P69905, E7V)
# Construct: HbS was obtained from the blood of homozygous S/S patients
# Test: 'R'-'T' assay (conversion of oxy HbS to deoxy HbS under deoxygenating conditions)
# Condition: 50% inhibition of HbS 'R'-'T' conversion; 3 uM HbS, <1% O2
pIC50: −log10 of the molar value.
Here, each record is paired with measured pIC50 data.
Observed property: pIC50

compound="C[C@H](Oc1cc2cc(F)ccc2nc1N)c1cc(CC(=O)O)ccc1-n1cccn1 (single isomer, unassigned) [Example 8]" result_value=5.14
compound="Cc1ccc2nc(N)c(O[C@@H](C)c3nc(O)ccc3-n3cccn3)cc2n1 [Example 54]" result_value=4.95
compound="C[C@H](Oc1cc2cc(F)cc(F)c2nc1N)c1cc(C(=O)O)c(F)cc1-n1cccn1 [Example 23]" result_value=5.40
compound="COc1ccc(-n2cccn2)c([C@H](C)Oc2cc3cc(F)ccc3nc2N)n1 [Example 57]" result_value=5.32
compound="C[C@H](Oc1cc2cc(F)ccc2nc1N)c1cc2c(cnn2CC(N)=O)cc1-n1cccn1 [Example 70]" result_value=5.34
compound="C[C@H](Oc1cc2ncccc2nc1N)c1nc(O)ccc1-n1cccn1 [Example 47]" result_value=5.20
compound="C[C@H](Oc1cc2cc(F)ccc2nc1N)c1nc(C(=O)O)c(F)cc1-n1cccn1 [Example 39]" result_value=5.21
compound="Cc1cc2nc(N)c(O[C@@H](C)c3nc(O)ccc3-n3cccn3)cc2cn1 [Example 46]" result_value=5.28

---

# Test: Single dose study in sickle Townes mice: exposure in whole blood
# Type: in vivo
# Condition: male, Townes (sickle cell disease model), mouse, single dose 900 mg/kg oral gavage, SCD mice, n=3
Observed property: concentration at 0.5 h (µM)

structure_smiles=C[C@H](Oc1cc2cc(F)cc(F)c2nc1N)c1cc(C(=O)O)ccc1-n1cccn1 unit_tag=µM result_value=1500

---

# Test: Single dose study in sickle Townes mice: exposure in whole blood
# Assay type: in vivo
# Condition: male, Townes (sickle cell disease model), mouse, single dose 30 mg/kg oral gavage, SCD mice, n=3
Observed property: concentration at 0.5 h (µM)

structure_smiles=C[C@H](Oc1cc2cc(F)cc(F)c2nc1N)c1cc(C(=O)O)ccc1-n1cccn1 observed_property="concentration at 0.5 h" result_value=14.7
